# System: Alternaria solani
# ASSAY_NOTES: in vitro 96-well micro-titration test on Alternaria solani spores
# Type: cell-based
# CONDITIONS_USED: Concentration 0.05% mass of the stated aqueous solution
inhibition of A. solani, ingredient alone in water values for the compounds below.

In [3]: df
Out[3]:
                   compound  result
0  O=S(=O)([O-])[O-].[Fe+2]   −4.7%

For `O=S(=O)([O-])[O-].[Zn+2]` the compound record lists inhibition of A. solani, ingredient alone in water as −1.4%

Looking up O=S(=O)([O-])[O-].[Mn+2] [Mn 7%] , I found its inhibition of A. solani, ingredient alone in water recorded as 0.0%

Record [Na+].[Na+].[O]=[Mo](=[O])([O-])[O-] [Mo 0.01%, sodium molybdate] . Reported inhibition of A. solani, ingredient alone in water: 2.2%
